Tested on: Propionibacterium acnes ATCC 6919
Experiment: MIC, agar dilution method NCCLS M11-A6, Brucella agar, anaerobic (Table 9, superscript c)
Format: cell-based
Conditions: ATCC 6919
Non-standard residues stand in square brackets, D forms with d. Residues, ends and D or L forms follow the SMILES beside them. *: point of attachment. Lauroyl = CCCCCCCCCCCC(=O)*
measured-metric: MIC P. acnes (c ug/mL)

[
  {
    "compound": "CCCCCCCCCCCC(=O)N[C@H](CCCNC(=N)N)C(=O)N[C@H](CO)C(=O)N[C@H](CCCNC(=N)N)C(=O)N[C@H](Cc1c[nH]c2ccccc12)C(=O)N[C@H](CCCNC(=N)N)C(=O)N[C@H](CC(=O)O)C(=O)N[C@H](CC(C)C)C(=O)N[C@H](CC(C)C)C(=O)N[C@H](CCCNC(=N)N)C(=O)N[C@H](CC(N)=O)C(=O)N[C@H](CC(C)C)C(=O)N[C@H](CCSC)C(=O)N[C@H](CCCNC(=N)N)C(N)=O [Peptide 133, Lauryl-rsrwrdllrnlmr-NH2] (Lauroyl-[dR][dS][dR][dW][dR][dD][dL][dL][dR][dN][dL][dM][dR]-NH2)",
    "result-unit": "c ug/mL",
    "result-modifier": "=",
    "observed-value": 2
  },
  {
    "compound": "CCCCCCCCCCCC(=O)N[C@H](CO)C(=O)N[C@H](CCCNC(=N)N)C(=O)N[C@H](Cc1c[nH]c2ccccc12)C(=O)N[C@H](CCCNC(=N)N)C(=O)N[C@H](CC(=O)O)C(=O)N[C@@H](C(=O)N[C@H](C)C(=O)N[C@H](CCCNC(=N)N)C(=O)N[C@H](CC(N)=O)C(=O)N[C@H](Cc1ccccc1)C(=O)N[C@H](CCSC)C(=O)N[C@H](CCCNC(=N)N)C(N)=O)C(C)C [Peptide 131, Lauryl-srwrdvarnfmr-NH2] (Lauroyl-[dS][dR][dW][dR][dD][dV][dA][dR][dN][dF][dM][dR]-NH2)",
    "result-unit": "c ug/mL",
    "result-modifier": "=",
    "observed-value": 2
  },
  {
    "compound": "CCCCCCCCCCCC(=O)N[C@@H](CCCNC(=N)N)C(=O)N[C@@H](Cc1c[nH]c2ccccc12)C(=O)N[C@@H](CCCNC(=N)N)C(=O)N[C@@H](CC(=O)O)C(=O)N[C@H](C(=O)N[C@@H](C)C(=O)N[C@@H](CCCNC(=N)N)C(N)=O)C(C)C [Peptide 105, Lauryl-RWRDVAR-NH2] (Lauroyl-RWRDVAR-NH2)",
    "result-unit": "c ug/mL",
    "result-modifier": "=",
    "observed-value": 32
  },
  {
    "compound": "CCCCCCCCCCCC(=O)N[C@H](CCCNC(=N)N)C(=O)N[C@H](CO)C(=O)N[C@H](CCCNC(=N)N)C(=O)N[C@H](Cc1c[nH]c2ccccc12)C(=O)N[C@H](CCCNC(=N)N)C(=O)N[C@H](CC(=O)O)C(=O)N[C@@H](C(N)=O)C(C)C [Peptide 120, Lauryl-rsrwrdv-NH2] (Lauroyl-[dR][dS][dR][dW][dR][dD][dV]-NH2)",
    "result-unit": "c ug/mL",
    "result-modifier": "=",
    "observed-value": 64
  },
  {
    "compound": "CCCCCCCCCCCC(=O)N[C@@H](CCCNC(=N)N)C(=O)N[C@@H](Cc1c[nH]c2ccccc12)C(=O)N[C@@H](CCCNC(=N)N)C(=O)N[C@@H](CC(=O)O)C(=O)N[C@H](C(=O)N[C@@H](C)C(=O)N[C@@H](CCCNC(=N)N)C(=O)N[C@@H](CC(N)=O)C(=O)N[C@@H](Cc1ccccc1)C(=O)N[C@@H](CCSC)C(=O)N[C@@H](CCCNC(=N)N)C(N)=O)C(C)C [Peptide 113, Lauryl-RWRDVARNFMR-NH2] (Lauroyl-RWRDVARNFMR-NH2)",
    "result-unit": "c ug/mL",
    "result-modifier": ">",
    "observed-value": 64
  }
]

====

Items are presented alongside their recorded MIC P. aeruginosa.
Tested on: Pseudomonas aeruginosa ATCC 27853
Experiment: MIC, NCCLS M7-A6 broth microdilution (Table 9, no superscript)
Type: cell-based
Conditions: ATCC 27853
Description: Cation-adjusted Mueller Hinton broth was used in the broth microdilution method. In brief, a log-phase bacterial suspension was used to inoculate wells of a 96-well plate so that the final inoculum for each well contained 5×10^5 to 1×10^6 CFU/milliliter. […] Plates were incubated overnight at 37° C. The lowest concentration of peptide that contained no visible growth as evidenced by a lack of turbidity when compared to the control (no peptide) was determined as the MIC. […]
Non-standard residues stand in square brackets, D forms with d. Residues, ends and D or L forms follow the SMILES beside them. *: point of attachment. 1Nal = N[C@@H](Cc1cccc2ccccc12)C(=O)O; Lauroyl = CCCCCCCCCCCC(=O)*

[
  {
    "compound": "CCCCCCCCCCCC(=O)N[C@H](CCCNC(=N)N)C(=O)N[C@H](CO)C(=O)N[C@H](CCCNC(=N)N)C(=O)N[C@H](Cc1c[nH]c2ccccc12)C(=O)N[C@H](CCCNC(=N)N)C(=O)N[C@H](CC(=O)O)C(=O)N[C@@H](C(N)=O)C(C)C [Peptide 120, Lauryl-rsrwrdv-NH2] (Lauroyl-[dR][dS][dR][dW][dR][dD][dV]-NH2)",
    "result-unit": "µg/mL",
    "MIC P. aeruginosa": 64
  },
  {
    "compound": "CCCCCCCCCCCC(=O)N[C@@H](CCCNC(=N)N)C(=O)N[C@@H](CO)C(=O)N[C@@H](CCCNC(=N)N)C(=O)N[C@@H](Cc1cccc2ccccc12)C(=O)N[C@@H](CCCNC(=N)N)C(=O)N[C@@H](CC(=O)O)C(=O)N[C@@H](Cc1cccc2ccccc12)C(=O)N[C@@H](C)C(=O)N[C@@H](CCCNC(=N)N)C(=O)N[C@@H](CC(N)=O)C(=O)N[C@@H](Cc1ccccc1)C(=O)N[C@@H](CCSC)C(=O)N[C@@H](CCCNC(=N)N)C(N)=O [Peptide 153] (Lauroyl-RSR[1Nal]RD[1Nal]ARNFMR-NH2)",
    "result-unit": "µg/mL",
    "MIC P. aeruginosa": 64
  }
]

====

Tested on: Pseudomonas aeruginosa ATCC 27853
Assay: MIC, NCCLS M7-A6 broth microdilution (Table 9, no superscript)
Assay type: cell-based
Conditions: ATCC 27853
Residues, ends and D or L forms follow the SMILES beside them. *: point of attachment. Lauroyl = CCCCCCCCCCCC(=O)*

[
  {
    "compound": "CCCCCCCCCCCC(=O)N[C@@H](CCCNC(=N)N)C(=O)N[C@@H](CO)C(=O)N[C@@H](CCCNC(=N)N)C(=O)N[C@@H](Cc1c[nH]c2ccccc12)C(=O)N[C@@H](CCCNC(=N)N)C(=O)N[C@@H](CC(=O)O)C(=O)N[C@H](C(=O)N[C@@H](C)C(=O)N[C@@H](CCCNC(=N)N)C(=O)N[C@@H](CC(N)=O)C(N)=O)C(C)C [Peptide 100, Lauryl-RSRWRDVARN-NH2] (Lauroyl-RSRWRDVARN-NH2)",
    "MIC P. aeruginosa": ">64 µg/mL"
  },
  {
    "compound": "CCCCCCCCCCCC(=O)N[C@@H](CCCNC(=N)N)C(=O)N[C@@H](Cc1c[nH]c2ccccc12)C(=O)N[C@@H](CCCNC(=N)N)C(=O)N[C@@H](C)C(=O)N[C@@H](CC(C)C)C(=O)N[C@@H](C)C(=O)N[C@@H](CCCNC(=N)N)C(N)=O [Peptide 242, Lauryl-RWRALAR-NH2] (Lauroyl-RWRALAR-NH2)",
    "MIC P. aeruginosa": "8 µg/mL"
  },
  {
    "compound": "CCCCCCCCCCCC(=O)NCCCC[C@H](NC(=O)[C@H](CCCNC(=N)N)NC(=O)[C@H](CC(C)C)NC(=O)[C@H](Cc1ccccc1)NC(=O)[C@H](CC(N)=O)NC(=O)[C@H](CCCNC(=N)N)NC(=O)[C@H](C)NC(=O)[C@@H](NC(=O)[C@H](CC(=O)O)NC(=O)[C@H](CCCNC(=N)N)NC(=O)[C@H](Cc1c[nH]c2ccccc12)NC(=O)[C@H](CCCNC(=N)N)NC(=O)[C@H](CO)NC(=O)[C@@H](N)CCCNC(=N)N)C(C)C)C(N)=O [Peptide 181, H2N-RSRWRDVARNFLRK(Lauryl)-NH2] (H-RSRWRDVARNFLRK(Lauroyl)-NH2)",
    "MIC P. aeruginosa": "4 µg/mL"
  }
]

====

Test system: Pseudomonas aeruginosa ATCC 27853
Assay: MIC, NCCLS M7-A6 broth microdilution (Table 9, no superscript)
Type: cell-based
Settings: ATCC 27853
Non-standard residues stand in square brackets, D forms with d. Residues, ends and D or L forms follow the SMILES beside them. *: point of attachment. Lauroyl = CCCCCCCCCCCC(=O)*
measured-metric: MIC P. aeruginosa (µg/mL)

[
  {
    "compound": "CCCCCCCCCCCC(=O)N[C@H](CCCNC(=N)N)C(=O)N[C@H](CO)C(=O)N[C@H](CCCNC(=N)N)C(=O)N[C@H](Cc1c[nH]c2ccccc12)C(=O)N[C@H](CCCNC(=N)N)C(=O)N[C@H](CC(=O)O)C(=O)N[C@@H](C(=O)N[C@H](C)C(=O)N[C@H](CCCNC(=N)N)C(=O)N[C@H](CC(N)=O)C(=O)N[C@H](Cc1ccccc1)C(N)=O)C(C)C [Peptide 116, Lauryl-rsrwrdvarnf-NH2] (Lauroyl-[dR][dS][dR][dW][dR][dD][dV][dA][dR][dN][dF]-NH2)",
    "measured-metric": "MIC P. aeruginosa",
    "result-unit": "µg/mL",
    "observed-value": 8
  }
]
